Property: growth; scope: individual compounds
Test system: SK-OV-3 ovarian
Assay: NCI-60 one-dose screen, 48 h (100 = growth as untreated, 0 = no growth, -100 = all killed)
Details: 10 µM unless noted
The panel holds about 83,000 compounds, 20% with a hit somewhere; the sample as a whole holds those more often.

COMPOUND	growth [%]
CCCCCc1ccc(S(=O)(=O)Nc2cc(-c3csc(NC(=O)CN4CCN(CCO)CC4)n3)ccc2OC)cc1	78
O=C(c1ccc(O)cc1)[C@@H]1CN[C@@]2(C(=O)Nc3ccccc32)[C@H]1c1ccc(F)cc1	115
CCN1CCN(Cc2cn(-c3ccc(S(N)(=O)=O)cc3)nn2)CC1	105
CN(C)CCCOc1ccc2c(c1)CN(C(=O)c1cc(C(=O)N3Cc4cccc(F)c4C3)ccc1O)C2	112
N#Cc1c(NC(=O)c2cccc(C(F)(F)F)c2F)sc2c1CCC(=O)C2	5.3
C#Cc1nc(C(=O)NCCC(=O)Nc2ccc(NC(=O)c3ccc(/C=C/C(=O)c4nccn4C)cc3)cc2)cs1	86.3
O=S(=O)(NCCNc1nccc(-n2cnc3ccccc32)n1)c1ccc(Br)cc1	99.9
COc1ccc([C@H]2c3[nH]c4ccccc4c3C[C@H]3C(=O)N(C4CCN(Cc5c(Cl)cccc5Cl)CC4)CC(=O)N23)c(OC)c1	117
Cc1cccc2c3c(sc12)C(c1ccc(Cl)cc1)c1c(nc(CC(=O)Nc2ccccc2)[nH]c1=O)O3 (configuration not stated)	73.3
CCCCc1nc(/C=N/Nc2nc(Nc3ccccc3)nc(Nc3ccc(S(N)(=O)=O)cc3)n2)c(Cl)[nH]1	114
O=C(Nc1ccc(Br)cc1)Nc1nc2ccc([N+](=O)[O-])cc2s1	-5.7
COc1cc(/C=C/C(=O)c2ccc(NC(=O)CSc3nnc(-c4ccc(-c5nc6ccc(Cl)cc6[nH]5)cc4)o3)cc2)cc(OC)c1OC	99
O=C(CN1CCN(c2cc(=O)n(-c3ccccc3)c3ccccc23)CC1)Nc1nc(-c2ccccc2)cs1	70.7
O=C(Nc1cccc(Cl)c1)Nc1nc2ccc([N+](=O)[O-])cc2o1	12.9
CCNC(=O)N1CCc2cc(OC)c(OCCc3ccc(OC)nc3)cc2C1c1ccc(OC)cc1C (configuration not stated)	54.6
CN1CCN(c2nc(-c3csc(-c4ccccc4)n3)cc3ccccc23)CC1	81.8
CC(C)(C)c1ccc(C(=O)Nc2sc3c(c2C(N)=O)CCC(O)C3)cc1 (configuration not stated)	70.1
CN1CCN(c2ccc(/C=N/Nc3nc4ccccc4c(=O)n3-c3ccccc3)cc2)CC1	109
Cc1ccc(-c2cc3nc(C(Cl)Cl)nc(-c4ccco4)n3n2)cc1	24.2
CN(C)CCNC(=O)c1ccc(-c2nc3ccc4[nH]ncc4c3c3c2CCC3)cc1	0.409
COc1ccc(NCc2cn(-c3ccc(C(=O)O)cc3)nc2-c2cc(C(F)(F)F)cc(C(F)(F)F)c2)cc1	99.6
COc1cc2nc(Cl)nc(Nc3cccc(C4=Nc5c(N)nc(N)nc5NC(c5ccc(Br)cc5)C4)c3)c2cc1OC (configuration not stated)	125
C=C=COc1cccc(/C(N)=N/C(N)=N/c2nc3ccccc3s2)c1	102
CCOP(=O)(OCC)OC[C@]12CCC(C)(C)C=C1[C@H]1CC[C@@H]3[C@@]4(C)CC[C@H](OP(=O)(OCC)OCC)C(C)(C)[C@@H]4CC[C@@]3(C)[C@]1(C)CC2	-2.62
COc1cc(Nc2c(C#N)cnn3cc(-c4cnn(CC(C)(C)O)c4)cc23)ccc1Cl	4.19
CCN(CC)c1ccc(NC2=C(Cl)C(=O)c3nc(C)ccc3C2=O)cc1	112
O=S(=O)(NC1c2ccccc2C[C@H]1O)c1ccc(Cl)cc1Cl (some centres not stated)	97.3
COc1cc(-c2nn(C(C)(C)C)cc2-c2ccnc(NCCCNS(=O)(=O)c3ccc(C)cc3)n2)ccc1Cl	106
Cc1ccc(C2=NN(C)C(=O)C3(CCCC3)C2)cc1	110
CC/C(=C/c1c(O)cccc1OC)c1ccc2c(OC)cccc2[o+]1	97.8
CCNC(=O)Oc1ccc(/C(=C(/C)c2ccccc2)c2ccc(OCCN3CCCCCC3)cc2)cc1	51.8
O=C(CN1CCN(c2cc(=O)n(-c3ccccc3)c3ccccc23)CC1)Nc1ccc(F)cc1	78.6
Cc1ccc(NC(=O)c2ccc(CN3CCOCC3)c(C(F)(F)F)c2)cc1Oc1ccc(-c2[nH]nc3ncnc(N)c23)cc1	71.6
Fc1ccc(-c2cc3nc(C(Cl)Cl)nc(-c4ccc(F)cc4)n3n2)cc1	-29.2
CCCn1cnc2c(c1=N)C(c1ccc(Cl)cc1)c1sc3c(CC)cccc3c1O2 (configuration not stated)	29.7
COc1cc2nc(Cl)nc(Nc3cccc(C4=Nc5c(N)nc(N)nc5NC(c5ccccc5)C4)c3)c2cc1OC (configuration not stated)	121
O=C(CSc1nc2ccccc2c(=O)n1-c1ccccc1)Nc1cccc(C(=O)/C=C/c2ccccc2)c1	103
